Provenance of the data: patent US20250171534A1

# test-target: T1, LILRB1-ECD-HIS (SinoBiological Cat #: 16014-H02H) (human, UniProt Q8NHL6 24-461)
# T1 construct: Bought protein; also called monomeric antigen LILRB1-ECD-HIS; not shown: His tag
# T1 sequence (Q8NHL6 other isoform, or with tags, fused parts or gaps H02H H02H): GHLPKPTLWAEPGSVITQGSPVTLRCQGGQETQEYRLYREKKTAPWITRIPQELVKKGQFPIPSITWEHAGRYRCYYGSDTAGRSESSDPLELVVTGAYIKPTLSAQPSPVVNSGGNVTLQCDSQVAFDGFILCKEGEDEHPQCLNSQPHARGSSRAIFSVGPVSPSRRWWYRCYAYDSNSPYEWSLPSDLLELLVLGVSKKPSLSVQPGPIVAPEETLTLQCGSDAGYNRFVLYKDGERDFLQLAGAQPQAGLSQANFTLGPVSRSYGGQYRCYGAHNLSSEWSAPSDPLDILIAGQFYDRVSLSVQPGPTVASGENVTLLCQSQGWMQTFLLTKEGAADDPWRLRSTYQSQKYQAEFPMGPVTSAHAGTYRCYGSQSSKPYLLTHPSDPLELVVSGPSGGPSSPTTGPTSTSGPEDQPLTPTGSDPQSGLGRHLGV
# protocol-text: BLI (Gator), RB1-ECD-his
value-kind: Kd (nM)
Kindly answer with a numeric value in nM, unit omitted.

Asked: Dear colleague, I am looking for the recorded Kd of the following binder: D2M002-026 (antibody, V domains shown, Hit; also called clone #26) VH: QVQLQQPGAELMKPGASVKISCKATGYTFSSYWIEWVKQRPGHGLEWIGEILPGDGSTNYNAKFKGQATFTADTSSNTAYMQFSSLTSEDSAVYYCARSGAGGYDSGAFAYWGQGTLVTVSS VL: DIVLTQSPASLAVSLGQRATISCRASESVDTYGNSFMHWYQQKPGQPPKLLVYRTSNLESGIPARFSGSGSGTDFTLTINPVEADDVATYYCQQSNEDPWTFGGGTKLEIK
Given back: 0.689

Asked: Dear colleague, I am looking for the recorded Kd of the following binder: D2M002-126 (antibody, V domains shown, Humanized and optimized variant of D2M002-026) VH: QVQLVQSGAEVKKPGASVKVSCKASGYTFTSYWIEWVRQAPGQGLEWIGEILPGDESTNYNAKFKGRVTFTTDTSTSTAYMELRSLRSDDTAVYYCARSGAGGYDSGAFAYWGQGTLVTVSS VL: AIQLTQSPSSLSASVGDRVTITCRASESVDTYGNSFMHWYQQKPGKAPKLLVYRTSNLESGVPSRFSGSGSGTDFTLTISSLQPEDFATYYCQQSNEDPWTFGGGTKVEIK
Given back: 0.366

Asked: Dear colleague, I am looking for the recorded Kd of the following binder: D2M002-103 (antibody, V domains shown, also called P212_F01) VH: QVQLVQSGAEVKKPGASVKVSCKASGYTFTRYVMHWVRQAPGQRLEWMGWINPNNEETKYSQKFKGRVTLTRDTSASTAYMELSSLRSEDTAVYYCARADLEILPYYDHARYAMDYWGQGTLVTVSS VL: DIQMTQSPSSVSASVGDRVTITCRASENIYSHLAWYQQKPGKAPKLLVYNAKSLQSGVPSRFSGSGSGTDFTLTISSLQPEDFATYYCQHFWSTPPTFGGGTKVEIK
Given back: 1.1

Asked: Dear colleague, I am looking for the recorded Kd of the following binder: D2M002-002 (antibody, V domains shown, Hit from immunised mice; also called clone #2; anti-LILRB1/2 clone #2) VH: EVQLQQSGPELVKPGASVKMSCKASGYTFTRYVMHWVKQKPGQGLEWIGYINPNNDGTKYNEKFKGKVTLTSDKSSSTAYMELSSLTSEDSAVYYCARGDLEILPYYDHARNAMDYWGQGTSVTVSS VL: DVQMIQSPASLSASVGETVTITCRASENIYSYLAWYQQKQGKSPQLLVYNAKTLAEGVPSRFSGSGSGTQFSLKINSLQPEDFGSYYCQHFWSTPPTFGGGTKLEIK
Given back: 2.12
